# testTarget: Human M4 (Homo sapiens, UniProt P08173)
# Construct: expressed in transfected cells
# Sequence (P08173 whole entry): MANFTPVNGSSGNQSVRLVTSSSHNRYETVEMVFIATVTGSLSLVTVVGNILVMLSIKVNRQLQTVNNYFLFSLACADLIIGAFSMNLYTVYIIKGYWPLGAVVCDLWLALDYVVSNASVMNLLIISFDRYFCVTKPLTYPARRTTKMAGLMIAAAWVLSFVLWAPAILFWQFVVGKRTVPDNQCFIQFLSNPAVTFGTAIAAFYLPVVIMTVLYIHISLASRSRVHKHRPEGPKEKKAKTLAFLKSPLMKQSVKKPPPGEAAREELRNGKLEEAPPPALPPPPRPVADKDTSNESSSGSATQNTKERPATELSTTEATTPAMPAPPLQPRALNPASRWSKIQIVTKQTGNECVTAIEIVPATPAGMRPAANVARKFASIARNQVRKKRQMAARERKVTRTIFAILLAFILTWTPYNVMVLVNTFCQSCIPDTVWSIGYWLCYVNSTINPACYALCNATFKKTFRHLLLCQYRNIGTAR
# runDescription: mAChR M4 cell-based functional assay (calcium flux, potentiation of EC20 acetylcholine response), hM4-Gqi5 CHO-K1 cells
# details: CHO-K1; Table 3; Human M4; % ACh maximum at 30 μM; read-out: Emax (% ACh maximum at 30 μM)
quantityName: Emax at 30 µM (%)

Cc1c(N2CCc3ncc(-c4cc(F)cnc4Cl)cc3C2)nn2cnnc2c1C [Compound 181] | 95

[I] Cc1c(N2CCc3ncc(N4CCC(F)(F)CC4)cc3C2)nn2c(C(F)(F)F)nnc2c1C [Compound 280]
[II] Cc1c(N2CCc3ncc(-c4cnn(C5CCCCC5)c4)cc3C2)nn2c(C(F)(F)F)nnc2c1C [Compound 253]
Input pair: I , II . Output: entry with lower Emax at 30 µM. Answer by quoting the chosen item's label. II

[1] Cc1c(N2CCc3ncc(C(=O)NCc4cncs4)cc3C2)nn2c(C(F)(F)F)nnc2c1C [Compound 228]
[2] Cc1cc(Nc2cnc3c(c2)CN(c2nn4cnnc4c(C)c2C)CC3)n(CC(C)C)n1 [Compound 212]
// which entry has the larger Emax at 30 µM value, 1 or 2 ? Answer by quoting the chosen item's label. 1
(1: 85%, 2: 41%)

[I] Cc1c(N2CCc3ncc(Nc4ccnn4C)cc3C2)nn2cnnc2c1C [Compound 164]
[II] Cc1c(N2CCc3ncc(N4CCCc5ccccc54)cc3C2)nn2c(C(F)(F)F)nnc2c1C [Compound 231]
Input pair: I , II . Output: entry with lower Emax at 30 µM. Answer by quoting the chosen item's label. II

[1] Cc1c(N2CCc3ncc(Oc4cccc(F)c4F)cc3C2)nn2c(C(F)(F)F)nnc2c1C [Compound 300]
[2] Cc1cc(Nc2cnc3c(c2)CN(c2nn4cnnc4c(C)c2C)CC3)n(C(C)C)n1 [Compound 214]
// which entry has the larger Emax at 30 µM value, 1 or 2 ? Answer by quoting the chosen item's label. 1
